// data source = ChEMBL document CHEMBL1287721

# Measured Target: Androgen receptor (Homo sapiens, UniProt P10275)
# Sequence (P10275 whole entry): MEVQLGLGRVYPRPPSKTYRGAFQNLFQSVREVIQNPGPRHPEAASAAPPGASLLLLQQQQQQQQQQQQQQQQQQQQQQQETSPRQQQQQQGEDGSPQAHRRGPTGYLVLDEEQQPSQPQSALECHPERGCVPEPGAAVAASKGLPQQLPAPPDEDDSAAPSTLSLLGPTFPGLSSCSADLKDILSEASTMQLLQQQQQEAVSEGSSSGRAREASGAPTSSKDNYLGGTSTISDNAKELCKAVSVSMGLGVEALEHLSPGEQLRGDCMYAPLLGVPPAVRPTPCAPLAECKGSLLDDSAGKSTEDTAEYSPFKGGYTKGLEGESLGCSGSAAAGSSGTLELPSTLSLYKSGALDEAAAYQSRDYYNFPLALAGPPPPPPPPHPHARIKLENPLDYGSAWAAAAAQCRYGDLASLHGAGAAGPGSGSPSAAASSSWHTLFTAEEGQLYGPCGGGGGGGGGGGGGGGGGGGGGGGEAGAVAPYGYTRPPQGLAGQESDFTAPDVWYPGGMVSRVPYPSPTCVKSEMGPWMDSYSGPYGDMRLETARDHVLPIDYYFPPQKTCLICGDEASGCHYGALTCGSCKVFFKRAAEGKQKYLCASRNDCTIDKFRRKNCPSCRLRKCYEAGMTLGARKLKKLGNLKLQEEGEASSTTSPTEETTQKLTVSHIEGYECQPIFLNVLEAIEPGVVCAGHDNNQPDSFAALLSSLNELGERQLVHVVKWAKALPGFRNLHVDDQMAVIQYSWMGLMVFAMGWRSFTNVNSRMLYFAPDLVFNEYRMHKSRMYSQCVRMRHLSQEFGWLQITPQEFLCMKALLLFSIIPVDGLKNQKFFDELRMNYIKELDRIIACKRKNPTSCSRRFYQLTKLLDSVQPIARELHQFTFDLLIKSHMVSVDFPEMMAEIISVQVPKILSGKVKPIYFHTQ
Entries and their IC50
Could you give me the number in nM? Just the number is fine.

INSERT INTO measurements (compound, measure_unit, quantitative_readout) VALUES
  ('OC1(C(F)(F)F)CCCc2c1[nH]c1ccc(Cl)c(Cl)c21 (stereo unspecified)', 'nM', 95);

Item OC1(C(F)(F)F)CCCc2c1[nH]c1c(Cl)cc(Cl)cc21 (stereo unspecified) was tested on Androgen receptor (Homo sapiens, UniProt P10275); the reported IC50 is 34

Item OC1(C(F)(F)C(F)(F)F)CCCc2c1[nH]c1cc(Cl)c(Cl)cc21 (stereo unspecified) was tested on Androgen receptor (Homo sapiens, UniProt P10275); the reported IC50 is 34

Item OC1(C(F)(F)F)CCCc2c1[nH]c1cc(Cl)c(Cl)cc21 (stereo unspecified) was tested on Androgen receptor (Homo sapiens, UniProt P10275); the reported IC50 is 27
